# credit: patent US20070185168A1

Please provide measured pIC50 for the entries that follow.
Biological target: NR2B subunit of the NMDA receptor (Rattus norvegicus, UniProt P35439+Q00960)
Construct: The forebrain membrane specimen of male rats of an SD strain; from tissue; host or cells: rat (SD strain, male) forebrain membranes
Sequence (Q00960 27-1482, other chains not shown): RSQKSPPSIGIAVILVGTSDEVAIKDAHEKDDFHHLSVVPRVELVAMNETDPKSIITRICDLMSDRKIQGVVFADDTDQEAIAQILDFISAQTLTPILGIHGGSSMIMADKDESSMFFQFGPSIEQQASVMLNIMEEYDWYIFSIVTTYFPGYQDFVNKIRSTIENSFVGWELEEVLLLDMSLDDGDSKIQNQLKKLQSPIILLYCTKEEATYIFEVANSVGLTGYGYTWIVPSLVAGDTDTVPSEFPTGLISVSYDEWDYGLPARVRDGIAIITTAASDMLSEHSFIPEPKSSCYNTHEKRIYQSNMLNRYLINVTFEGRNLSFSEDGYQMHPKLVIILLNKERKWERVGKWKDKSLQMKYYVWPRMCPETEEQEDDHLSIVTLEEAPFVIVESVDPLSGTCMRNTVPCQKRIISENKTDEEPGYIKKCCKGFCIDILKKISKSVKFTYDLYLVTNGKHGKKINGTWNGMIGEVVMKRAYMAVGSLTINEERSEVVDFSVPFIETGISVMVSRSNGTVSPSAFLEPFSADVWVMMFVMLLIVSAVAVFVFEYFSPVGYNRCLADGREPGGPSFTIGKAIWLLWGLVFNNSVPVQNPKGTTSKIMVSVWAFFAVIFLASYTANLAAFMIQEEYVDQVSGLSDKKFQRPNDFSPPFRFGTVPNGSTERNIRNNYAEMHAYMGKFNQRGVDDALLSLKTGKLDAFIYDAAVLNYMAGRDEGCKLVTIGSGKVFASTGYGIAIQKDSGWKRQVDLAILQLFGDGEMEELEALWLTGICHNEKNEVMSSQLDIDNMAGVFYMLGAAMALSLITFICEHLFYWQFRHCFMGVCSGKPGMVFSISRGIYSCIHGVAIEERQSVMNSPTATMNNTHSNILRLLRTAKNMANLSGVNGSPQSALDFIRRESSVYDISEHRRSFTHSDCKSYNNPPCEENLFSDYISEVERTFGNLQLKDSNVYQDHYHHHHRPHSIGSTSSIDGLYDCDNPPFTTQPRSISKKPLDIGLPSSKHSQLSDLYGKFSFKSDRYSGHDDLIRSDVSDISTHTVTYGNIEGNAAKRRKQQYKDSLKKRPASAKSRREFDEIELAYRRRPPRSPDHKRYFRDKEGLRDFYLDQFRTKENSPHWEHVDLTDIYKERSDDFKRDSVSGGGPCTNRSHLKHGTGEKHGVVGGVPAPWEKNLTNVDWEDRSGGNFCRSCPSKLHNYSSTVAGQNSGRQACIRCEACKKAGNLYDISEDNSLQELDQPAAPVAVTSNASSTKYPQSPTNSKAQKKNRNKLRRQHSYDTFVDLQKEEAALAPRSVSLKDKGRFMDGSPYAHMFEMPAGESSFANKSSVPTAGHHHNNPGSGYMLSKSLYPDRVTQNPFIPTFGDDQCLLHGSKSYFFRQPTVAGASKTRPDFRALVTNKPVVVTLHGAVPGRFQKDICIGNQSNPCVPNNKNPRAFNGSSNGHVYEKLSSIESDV
Experiment: Antagonistic activity at rat NMDA receptor NR2B subunit: inhibition of [3H]ifenprodil binding to rat forebrain membrane
Text: Antagonistic Activity at Rat NMDA Receptor NR2B Subunit […]
One number for each entry, as −log10 of the molar value.

Count: 3. Required value per item: pIC50.
1. O=c1[nH]c2ccc(C(O)CN3CCC(O)(c4cccs4)CC3)cc2s1 (stereo not drawn) [Compound 5]
2. CC(C(O)c1ccc2[nH]c(=O)sc2c1)N1CCC(O)(c2cccs2)CC1 (racemic) [Compound 2]
3. CC(C(O)c1ccc2[nH]c(=O)sc2c1)N1CCC(O)(c2cccs2)CC1 (racemic) [Compound 1]

Completion:
1. 8.54
2. 8.39
3. 8.70
